# Test system: Escherichia coli TOP10;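 note: peptides expressed intracellularly from a pBAD plasmid library in pooled LB shake-flask culture, induced with 0.3% L-arabinose, DNA abundance read by NGS, three biological replicates, DESeq2 with apeglm shrinkage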
# Test summary: shrunken log2 fold change of peptide-encoding DNA abundance (4.5 h post-induction vs induction); higher = less antimicrobial activity (less host growth inhibition)
# Condition label: time post-induction: 4.5 h; library: site-saturation at positions 5, 18, 19, 20
Please use criterion met whenever shrunken log2 fold change is not below -0.01, and criterion not met whenever it is.

input: Decide: shrunken log2 fold change of `RRIRTRPPRLPRPRPRPVWHPRP` >= -0.01?
output: criterion met

input: Decide: shrunken log2 fold change of `RRIRDRPPRLPRPRPRPQLRPRP` >= -0.01?
output: criterion not met

input: Decide: shrunken log2 fold change of `RRIRYRPPRLPRPRPRPANIPRP` >= -0.01?
output: criterion not met

input: Decide: shrunken log2 fold change of `RRIRIRPPRLPRPRPRPYHQPRP` >= -0.01?
output: criterion met

input: Decide: shrunken log2 fold change of `RRIRARPPRLPRPRPRPWIIPRP` >= -0.01?
output: criterion not met

input: Decide: shrunken log2 fold change of `RRIRCRPPRLPRPRPRPWAGPRP` >= -0.01?
output: criterion met

input: Decide: shrunken log2 fold change of `RRIRYRPPRLPRPRPRPAKWPRP` >= -0.01?
output: criterion met

input: Decide: shrunken log2 fold change of `RRIRNRPPRLPRPRPRPGVRPRP` >= -0.01?
output: criterion met

input: Decide: shrunken log2 fold change of `RRIRKRPPRLPRPRPRPMHAPRP` >= -0.01?
output: criterion met

input: Decide: shrunken log2 fold change of `RRIRWRPPRLPRPRPRPTCFPRP` >= -0.01?
output: criterion met

input: Decide: shrunken log2 fold change of `RRIRRRPPRLPRPRPRPFFWPRP` >= -0.01?
output: criterion met

input: Decide: shrunken log2 fold change of `RRIRSRPPRLPRPRPRPKAPPRP` >= -0.01?
output: criterion met

input: Decide: shrunken log2 fold change of `RRIRYRPPRLPRPRPRPGYVPRP` >= -0.01?
output: criterion not met

input: Decide: shrunken log2 fold change of `RRIRNRPPRLPRPRPRPRLMPRP` >= -0.01?
output: criterion not met

input: Decide: shrunken log2 fold change of `RRIRGRPPRLPRPRPRPVVCPRP` >= -0.01?
output: criterion met

input: Decide: shrunken log2 fold change of `RRIRYRPPRLPRPRPRPEHQPRP` >= -0.01?
output: criterion not met

input: Decide: shrunken log2 fold change of `RRIRWRPPRLPRPRPRPSQVPRP` >= -0.01?
output: criterion not met
